# assayedTarget: T1, Talin F3 Q381V (mouse, UniProt P26039 309-405, limits assumed)
# T1 construct: domain: F3 sub-domain; As m1, with the mutation
# T1 sequence (P26039 309-405 Q381V limits assumed): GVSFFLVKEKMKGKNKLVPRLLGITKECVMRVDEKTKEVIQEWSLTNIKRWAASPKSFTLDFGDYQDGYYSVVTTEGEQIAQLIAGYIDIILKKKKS
# assayComment: ITC, peptide injected into talin F3 Q381V, 23 C, 200 mM Tris, 300 mM NaCl, pH 7.5
# Protocol: Peptide concentrations were typically at 150 to 300 μM while protein concentrations ranged from 25 to 50 μM. For the W359A mutant, the protein concentration was 50 μM and the peptide concentration was 1 mM. […] The bottom panel is the binding curve, calculated using the software program Origin. Isothermal titration calorimetry (ITC) was performed on a VP-ITC calorimeter (Microcal, Northampton, Mass.). […] Experimental data were analyzed using Microcal Origin software.
Non-standard residues stand in square brackets, D forms with d. No end group written: not given here. pY = N[C@@H](Cc1ccc(OP(=O)(O)O)cc1)C(=O)O
valueKind: Kd (nM)
Kindly provide the numeric value in nM only, without the unit symbol.

Prompt: I'd like to know its Kd. The binder in question is KKLLITIHDRKEFAKFEEERARAKWV[pY]SPLHYSAR (Integrin β3 tail residues N-terminal of W739, PIPKIγ residues C-terminal of it (numbered 740-746 in the deposited structure); also called β3 chimera; β3-integrin/PIPKIγ peptide) [β3/PIPKIγ chimeric peptide, wild type]
Response: 135
